Origin of values: the supplement of paper PMC8728848

- experimentalTarget: Man(a1-3)[Man(a1-6)]Man(a1-6)[Man(a1-3)]Man
- assayProtocol: glycan array binding signal (z-score within array); higher = stronger binding
- conditionSet: glycan notation: IUPAC condensed, linker removed
Many of the other results were omitted from the sample, so the strongest signals are more common in it than they were.
resultType: glycan array binding signal (z-score)
Please state the value as a number alone, without comment.

Need glycan array binding signal (z-score) of OS9-MRH (Homo sapiens), Q13438 (protein) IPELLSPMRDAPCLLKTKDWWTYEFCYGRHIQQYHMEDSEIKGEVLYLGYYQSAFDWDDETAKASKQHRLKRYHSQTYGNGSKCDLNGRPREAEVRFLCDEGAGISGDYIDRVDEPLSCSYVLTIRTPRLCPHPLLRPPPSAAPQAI , thanks.
0.835

Need glycan array binding signal (z-score) of ArathEULS3 (Arabidopsis thaliana), Q945P1 (protein) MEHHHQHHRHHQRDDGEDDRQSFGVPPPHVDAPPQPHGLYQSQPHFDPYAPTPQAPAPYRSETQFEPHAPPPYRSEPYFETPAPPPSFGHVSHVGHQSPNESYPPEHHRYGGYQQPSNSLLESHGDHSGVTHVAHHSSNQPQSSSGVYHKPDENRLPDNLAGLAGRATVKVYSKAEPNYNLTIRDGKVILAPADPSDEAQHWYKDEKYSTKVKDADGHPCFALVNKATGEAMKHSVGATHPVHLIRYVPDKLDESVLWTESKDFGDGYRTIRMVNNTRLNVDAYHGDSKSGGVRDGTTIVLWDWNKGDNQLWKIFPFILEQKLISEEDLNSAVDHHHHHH , thanks.
-0.266

Need glycan array binding signal (z-score) of Mannose Binding Protein (Lactobacillus plantarum) (protein) AERSEAALTHVDKDNFLKYFSLNGSATYDAKTGIVTITPNQNNQVGNFSLTSKIDMNKSFTLTGQVNLGSNPNGADGIGFAFHSGNTTDVGNAGGNLGIGGLQDAIGFKLDTWFNSYQAPSSDKNGSEISSTNSNGFGWNGDSANAPYGTFVKTSNQEISTANGSKVQRWWAQDTGESQALSKADIDGNFHDFVVNYDGATRTLTVSYTQASGKVLTWKTTVASSYQAMAMVVSASTGAAKNLQQFKLTSFDFQEAATVNVKYVDTTGHQLAQG , thanks.
1.77
